The reported numbers originate from PubChem BioAssay AID1117319.

- system-under-test: Virion infectivity factor (Human immunodeficiency virus type 1 group M subtype B (isolate BH10)) + Virion infectivity factor (Human immunodeficiency virus type 1 group M subtype B (isolate BRU/LAI)) + Virion infectivity factor (Human immunodeficiency virus type 1 group M subtype B (isolate PCV12)) + Virion infectivity factor (Human immunodeficiency virus type 1 group M subtype B (isolate HXB2)) + DNA dC->dU-editing enzyme APOBEC-3G (Homo sapiens) (UniProt P69720+P69721+P69722+P69723+Q9HC16)
- experiment-notes: inhibitors of Vif binding to APOBEC3G peptide, primary screen, biochemical, TR-FRET, GST-Vif 1-94, biotin-A3G peptide, dose response retest (AID 1117319);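 note: Vif residues 1-94 fused to GST binding biotinylated APOBEC3G peptide 110-148; 0% = full assay without inhibitor and 100% = GST in place of GST-Vif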
- experimental-conditions: stronger effect = higher value
In all, about 260,000 compounds went through this assay and about 1,500 (0.58%) were called active. Not shown: some 5% with an inconclusive outcome. Only a sample is shown. Entries with a potency or affinity are not part of this list.
Catalogue of compounds with associated inhibition
Provide the reading as a plain figure in %.

>  <compound>
Cc1ccc2cccc(SCC(=O)NCc3ccco3)c2n1

>  <inhibition / %>
5.4

$$$$
>  <compound>
CN(CCC#N)C(=O)CC(Cc1ccccc1)C1CCOC(C)(C)C1 (stereo not drawn)

>  <inhibition / %>
28.5

$$$$

// below: inhibition requested for another compound
Given the compound Cc1nnc(SCC(=O)Nc2ccccc2)n1CCc1ccccc1 , what is its reported inhibition?
-1.11

* * *

- system-under-test: Virion infectivity factor (Human immunodeficiency virus type 1 group M subtype B (isolate BH10)) + Virion infectivity factor (Human immunodeficiency virus type 1 group M subtype B (isolate BRU/LAI)) + Virion infectivity factor (Human immunodeficiency virus type 1 group M subtype B (isolate PCV12)) + Virion infectivity factor (Human immunodeficiency virus type 1 group M subtype B (isolate HXB2)) + DNA dC->dU-editing enzyme APOBEC-3G (Homo sapiens) (UniProt P69720+P69721+P69722+P69723+Q9HC16)
- experiment-notes: inhibitors of Vif binding to APOBEC3G peptide, primary screen, biochemical, TR-FRET, GST-Vif 1-94, biotin-A3G peptide, dose response retest (AID 1117319);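 note: Vif residues 1-94 fused to GST binding biotinylated APOBEC3G peptide 110-148; 0% = full assay without inhibitor and 100% = GST in place of GST-Vif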
- experimental-conditions: stronger effect = higher value
The whole screen tested about 260,000 compounds, of which about 1,500 (0.58%) were called active. About 5% were inconclusive and are not listed. Not all results are given here. Results with a measured potency or affinity are listed apart.
Catalogue of compounds with associated inhibition
Provide the reading as a plain figure in %.

>  <compound>
Cc1ccc(SCCCCN2C(=O)NC(C)(C)C2=O)cc1

>  <unit-spec>
%

>  <inhibition>
-3.51

$$$$
>  <compound>
CCC1(c2ccc(F)cc2)NC(=O)N(CC(=O)NCc2ccc(C)cc2)C1=O (stereo not given)

>  <unit-spec>
%

>  <inhibition>
-8.4

$$$$
>  <compound>
CC(C)(C)NC(=O)/C=C/c1cccs1

>  <unit-spec>
%

>  <inhibition>
-6.7

$$$$
>  <compound>
COc1ccccc1C(=O)NC(CCSC)C(=O)NNC(=O)c1ccc(F)cc1 (stereo not given)

>  <unit-spec>
%

>  <inhibition>
-6.52

$$$$
>  <compound>
O=Cc1ccc(-c2cccs2)s1

>  <unit-spec>
%

>  <inhibition>
-3.47

$$$$
>  <compound>
CCC(C(=O)OCC(=O)Nc1ccc(F)cc1)c1ccccc1 (stereo not given)

>  <unit-spec>
%

>  <inhibition>
11.7

$$$$
>  <compound>
CN(Cc1ccccc1)C(=O)CCC(=O)N(C)Cc1ccccc1

>  <unit-spec>
%

>  <inhibition>
0.41

$$$$
>  <compound>
O=C(/C=C\Nc1ccccn1)c1ccccc1

>  <unit-spec>
%

>  <inhibition>
1.92

$$$$

Given the compound Cc1cc(C)c(OCCNC(=O)c2ccccc2Sc2ccccc2C#N)c(C)c1 , what is its reported inhibition?
-2.47

Given the compound O=C(NC1(C(F)(F)F)NC(=O)N(CC2CCCCC2)C1=O)c1ccco1 (stereo not given) , what is its reported inhibition?
9.27

Given the compound O=C(/C=C\Nc1ccc2c(c1)OCO2)c1ccccn1 , what is its reported inhibition?
-6.96

Given the compound CC1(C)NC(=O)N(CCSc2ccc(Cl)cc2)C1=O , what is its reported inhibition?
-1.11

Given the compound CC(=O)c1ccc(-c2cccs2)s1 , what is its reported inhibition?
2.24

Given the compound Cc1cc(C(=O)OCC(=O)c2ccc3c(c2)OCCO3)c(C)o1 , what is its reported inhibition?
7.16
